Target: NS5B proteins of HCV genotype 1b (Con1) (Hepatitis C virus genotype 1b, UniProt Q9WMX2)
Construct: Each untagged protein was expressed with an 18 amino acid C-terminal truncation to enhance the solubility
Sequence (Q9WMX2 2420-2992): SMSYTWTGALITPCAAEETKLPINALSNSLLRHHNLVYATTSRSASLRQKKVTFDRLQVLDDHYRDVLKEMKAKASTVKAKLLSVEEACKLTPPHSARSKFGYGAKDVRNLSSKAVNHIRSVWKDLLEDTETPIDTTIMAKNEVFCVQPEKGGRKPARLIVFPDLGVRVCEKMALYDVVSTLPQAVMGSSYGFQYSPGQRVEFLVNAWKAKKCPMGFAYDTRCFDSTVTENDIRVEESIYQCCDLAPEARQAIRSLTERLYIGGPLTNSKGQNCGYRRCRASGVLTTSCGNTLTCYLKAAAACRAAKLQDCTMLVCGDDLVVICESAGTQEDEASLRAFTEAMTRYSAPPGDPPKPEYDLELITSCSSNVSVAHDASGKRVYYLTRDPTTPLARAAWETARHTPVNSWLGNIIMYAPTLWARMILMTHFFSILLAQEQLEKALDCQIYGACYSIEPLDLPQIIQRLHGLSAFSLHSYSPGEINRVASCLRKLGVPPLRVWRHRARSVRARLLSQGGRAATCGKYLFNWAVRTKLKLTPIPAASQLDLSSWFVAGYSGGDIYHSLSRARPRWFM
Experiment: HCV NS5B RdRp enzyme assay
Conditions: 1b enzyme
Method: HCVNS5B RdRp Cloning, Expression, and Purification. […] Reactions were allowed to proceed from 4 to 24 hours at 30° C. […] After incubating for at least 15 minutes, plates were read on an Amersham LEADseeker multimodality imaging system. IC50 values for compounds were determined using ten different [I]. […]
pIC50: −log10 of the molar value.
We'd kindly ask you to apply these pIC50 classes: low: < 7; middle: ≥ 7 and < 8; high: ≥ 8

Illustrative cases are given below, each with its answer.
{"columns": ["molecule", "classification"],
 "data": [
  ["CNC(=O)c1c(-c2ccc(F)cc2)oc2ccc(-c3cc(C(=O)NC4(c5ncccn5)CC(F)(F)C4)ccc3C)c(F)c12", "middle"],
  ["CCN(c1cc2oc(-c3ccc(F)cc3)c(C(=O)NC)c2cc1-c1cccc(C(=O)NC2(c3ncccn3)CC(F)C2)c1)S(C)(=O)=O (stereo not drawn)", "high"],
  ["CNC(=O)c1c(-c2ccc(F)cc2)oc2ccc(-c3cc(C(=O)NC4(c5ncccn5)CC(O)C4)ccc3C)c(F)c12 (single isomer, unassigned) [Example 5a]", "low"],
  ["CNC(=O)c1c(-c2ccc(F)cc2)oc2ccc(-c3cc(C(=O)NC4(c5ncccn5)CC(OC)(OC)C4)cc(F)c3C)c(F)c12", "middle"],
  ["CNC(=O)c1c(-c2ccc(F)cc2)oc2ccc(-c3cc(C(=O)NC4(c5ncccn5)CC(F)(F)C4)cc(F)c3C)c(F)c12", "low"]
]}

Could you place `CNC(=O)c1c(-c2ccc(F)cc2)oc2ccc(-c3cc(C(=O)NC4(c5ncccn5)CC(OC)(OC)C4)c(OC)cc3C)c(F)c12` in its proper category? Many thanks. middle

Could you place CCOc1cc2oc(-c3ccc(F)cc3)c(C(=O)NC)c2cc1-c1cccc(C(=O)NC2(c3ncccn3)CC(OC(F)F)C2)c1 (single isomer, unassigned) [Example 67b] in its proper category? Many thanks. high

----------
tested on: genotype 1b (Con-1) HCV replicon in Huh-7 cells; experiment: HCV replicon luciferase assay; format: cell-based; conditions: Hepatitis C virus, Huh-7, 72 h, 1b replicon, Huh-7, Renilla luciferase, 3 days incubation
measure: EC50 (nM)
Write the number in nM without appending the unit.

Record excerpt, results attached:
{"columns": ["compound", "measure", "readoutNumber"],
 "data": [
  ["CCCc1cc2oc(-c3ccc(F)cc3)c(C(=O)NC)c2cc1-c1ccc(F)c(C(=O)NC2(C)CC(OC(F)F)C2)c1 (single isomer, unassigned) [Example 61a]", "EC50", 20],
  ["CCCc1cc2oc(-c3ccc(F)cc3)c(C(=O)NC)c2cc1-c1ccc(OC)c(C(=O)NC2(c3ncccn3)CC(OC(F)(F)F)C2)c1 (single isomer, unassigned) [Example 51a]", "EC50", 20],
  ["CCCc1cc2oc(-c3ccc(F)cc3)c(C(=O)NC)c2cc1-c1cc(C(=O)NC2(c3ncccn3)CC(OC(F)F)C2)c(OC)cc1C (stereo not shown) [Example 39]", "EC50", 20]
]}

// moving on: another record for EC50
Checklist item: EC50 tested on genotype 1b (Con-1) HCV replicon in Huh-7 cells, entry CNC(=O)c1c(-c2ccc(F)cc2)oc2ccc(-c3cc(C(=O)NC4(c5ncccn5)CC(OC)(OC)C4)cc(F)c3C)c(F)c12 [Example 8] , value? 20

----------
Collected pIC50 values appear next to each entry.
target: NS5B proteins of HCV genotype 1b (Con1) (Hepatitis C virus genotype 1b, UniProt Q9WMX2); construct: Each untagged protein was expressed with an 18 amino acid C-terminal truncation to enhance the solubility; assay: HCV NS5B RdRp enzyme assay; conditions: 1b enzyme
Value format note: pIC50 is -log10 of concentration (mol/L); just state the number.

Checklist item: pIC50 tested on NS5B proteins of HCV genotype 1b (Con1) (Hepatitis C virus genotype 1b, UniProt Q9WMX2), entry CNC(=O)c1c(-c2ccc(F)cc2)oc2ccc(-c3cc(C(=O)NC4(c5ncccn5)CC(OC)C4)c(OC)cc3C)c(F)c12 (single isomer, unassigned) [Example 13a] , value? 7.52

Checklist item: pIC50 tested on NS5B proteins of HCV genotype 1b (Con1) (Hepatitis C virus genotype 1b, UniProt Q9WMX2), entry CCCc1cc2oc(-c3ccc(F)cc3)c(C(=O)NC)c2cc1-c1cccc(C(=O)NC2(c3ncccn3)CC(OC(F)(F)F)C2)c1 (stereo not drawn) , value? 8.23

Checklist item: pIC50 tested on NS5B proteins of HCV genotype 1b (Con1) (Hepatitis C virus genotype 1b, UniProt Q9WMX2), entry CNC(=O)c1c(-c2ccc(F)cc2)oc2ccc(-c3cc(C(=O)NC4(c5ncccn5)CC(OC)C4)ccc3C)c(F)c12 (single isomer, unassigned) [Example 10a] , value? 7.22

----------
system: genotype 1b (Con-1) HCV replicon in Huh-7 cells; assay: HCV replicon luciferase assay; assay type: cell-based; conditions: Hepatitis C virus, Huh-7, 72 h, 1b replicon, Huh-7, Renilla luciferase, 3 days incubation
Collected pEC50 values appear next to each entry.
Value format note: pEC50 is -log10 of concentration (mol/L); just state the number.

{"columns": ["compound", "targetDesc", "measure", "readoutNumber"],
 "data": [
  ["CNC(=O)c1c(-c2ccc(F)cc2)oc2ccc(-c3cc(C(=O)NC4(c5ncccn5)CC(OC)(OC)C4)c(OC)cc3C)c(F)c12", "genotype 1b (Con-1) HCV replicon in Huh-7 cells", "pEC50", 7.70]
]}

Checklist item: pEC50 tested on genotype 1b (Con-1) HCV replicon in Huh-7 cells, entry CNC(=O)c1c(-c2ccc(F)cc2)oc2cc(CCC(F)(F)F)c(-c3cc(C(=O)NC4(c5ncccn5)CC(OC(F)F)C4)c(OC)cc3C)cc12 (stereo not shown) , value? 7.70

Checklist item: pEC50 tested on genotype 1b (Con-1) HCV replicon in Huh-7 cells, entry CCCc1cc2oc(-c3ccc(F)cc3)c(C(=O)NC)c2cc1-c1ccc(F)c(C(=O)NC2(c3ncccn3)CC(OC(F)(F)F)C2)c1 (single isomer, unassigned) [Example 48a] , value? 7.70

Checklist item: pEC50 tested on genotype 1b (Con-1) HCV replicon in Huh-7 cells, entry CNC(=O)c1c(-c2ccc(F)cc2)oc2cc(CCC(F)(F)F)c(-c3ccc(F)c(C(=O)NC4(c5ncccn5)CC(OC(F)(F)F)C4)c3)cc12 (single isomer, unassigned) [Example 49a] , value? 7.70

----------
Target: NS5B proteins of HCV genotype 1b (Con1) (Hepatitis C virus genotype 1b)
Construct: Each untagged protein was expressed with an 18 amino acid C-terminal truncation to enhance the solubility
Experiment: HCV NS5B RdRp enzyme assay
Settings: 1b enzyme
Description: HCVNS5B RdRp Cloning, Expression, and Purification. […] Reactions were allowed to proceed from 4 to 24 hours at 30° C. […] After incubating for at least 15 minutes, plates were read on an Amersham LEADseeker multimodality imaging system. IC50 values for compounds were determined using ten different [I]. […]
Collected pIC50 values appear next to each entry.
Value format note: pIC50 is -log10 of concentration (mol/L); just state the number.

{"columns": ["molecule", "targetDesc", "pIC50"],
 "data": [
  ["CNC(=O)c1c(-c2ccc(F)cc2)oc2cc(CCC(F)(F)F)c(-c3ccc(OC)c(C(=O)NC4(c5ncccn5)CC(OC(F)F)C4)c3)cc12 (centres unmarked) [Example 43]", "NS5B proteins of HCV genotype 1b (Con1) (Hepatitis C virus genotype 1b)", 8.00],
  ["CNC(=O)c1c(-c2ccc(F)cc2)oc2cc(CCC(F)(F)F)c(-c3cccc(C(=O)NC4(c5ncccn5)CC(OC(F)F)C4)c3)cc12 (single isomer, unassigned) [Example 29a]", "NS5B proteins of HCV genotype 1b (Con1) (Hepatitis C virus genotype 1b)", 8.21],
  ["CNC(=O)c1c(-c2ccc(F)cc2)oc2cc(CCC(F)(F)F)c(-c3ccc(F)c(C(=O)NC4(c5ncccn5)CC(OC(F)(F)F)C4)c3)cc12 (single isomer, unassigned) [Example 49b]", "NS5B proteins of HCV genotype 1b (Con1) (Hepatitis C virus genotype 1b)", 8.00]
]}

Checklist item: pIC50 tested on NS5B proteins of HCV genotype 1b (Con1) (Hepatitis C virus genotype 1b), entry CNC(=O)c1c(-c2ccc(F)cc2)oc2ccc(-c3cc(C(=O)NC4(c5ncccn5)CC(F)C4)c(OC)cc3C)c(F)c12 (centres unmarked) [Example 19] , value? 6.92

Checklist item: pIC50 tested on NS5B proteins of HCV genotype 1b (Con1) (Hepatitis C virus genotype 1b), entry CNC(=O)c1c(-c2ccc(F)cc2)oc2cc(CCC(F)(F)F)c(-c3cccc(C(=O)NC4(c5ncccn5)CC(OC(F)(F)F)C4)c3)cc12 (single isomer, unassigned) [Example 45b] , value? 8.00
